experiment: chemical genetic growth profiling, strain panel (AID 1159580);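 also: tested at 20 µM; growth read once vehicle control cultures reached saturation at 30 °C; 1 = growth at the plate median or of vehicle wells; lower values mean less growth of the strain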; settings: S. cerevisiae deletion strains, growth OD, locus YLR357W, strain rsc2
In all, about 5,500 compounds went through this assay and about 2,000 (36%) were called active. Inconclusive results (about 18%) are left out. Rule as the data show it: active = normalized growth mostly below about 0.91 (no sharp cut-off); inconclusive = no clear call, values can overlap the other calls; inactive = mostly above about 0.92. The list shows a part of the results.
Possible outcomes: 1 for active, -1 for inactive

[
  {
    "compound": "C[C@@H]1O[C@@H](OC[C@H]2OC(Oc3c(-c4ccc(O)c(O)c4)oc4cc(O)cc(O)c4c3=O)[C@H](O)[C@@H](O)[C@@H]2O)[C@H](O)[C@H](O)[C@H]1O (some centres not stated)",
    "answer_label": -1
  },
  {
    "compound": "O=c1c(O)c(-c2ccc(O)c(O)c2)oc2cc(O)cc(O)c12",
    "answer_label": 1
  },
  {
    "compound": "O=c1cc(-c2ccc(O)cc2)oc2cc(O[C@@H]3O[C@H](CO)[C@@H](O)[C@H](O)[C@H]3O)cc(O)c12",
    "answer_label": -1
  },
  {
    "compound": "COc1ccc(-c2oc3cc(O[C@H]4O[C@H](CO)[C@@H](O)[C@H](O)[C@H]4O)c(OC)c(O)c3c(=O)c2OC)cc1O",
    "answer_label": -1
  },
  {
    "compound": "CC1O[C@@H](Oc2c(-c3ccc(O)c(O)c3)oc3cc(O)cc(O)c3c2=O)[C@H](O)[C@H](O)[C@H]1O (some centres not stated)",
    "answer_label": -1
  },
  {
    "compound": "O=c1c(O)c(-c2ccc(O)c(O)c2)oc2c(O[C@@H]3O[C@H](CO)[C@H](O)[C@@H](O)[C@H]3O)c(O)cc(O)c12",
    "answer_label": -1
  },
  {
    "compound": "COc1ccc(-c2cc(=O)c3c(O)cc(O[C@@H]4O[C@H](CO[C@H]5O[C@H](C)[C@@H](O)[C@H](O)[C@@H]5O)[C@@H](O)[C@H](O)[C@H]4O)cc3o2)cc1O",
    "answer_label": -1
  }
]

* * *

assay: chemical genetic growth profiling, strain panel (AID 1159580); settings: S. cerevisiae deletion strains, growth OD, locus YMR263W, strain SAP30, active compounds read low
In all, about 5,500 compounds went through this assay and about 2,000 (36%) were called active. Not shown: some 18% with an inconclusive outcome. The list shows a part of the results.
# reported normalized growth; entries follow

[
  {
    "molecule": "S=C(NC1CCCCC1)N1CCC(c2cnc[nH]2)CC1",
    "normalized growth": 1.01
  },
  {
    "molecule": "FC(F)(F)c1ccc(Cl)c(NC(=S)NN=C2CCCCCC2)c1",
    "normalized growth": 0.996
  },
  {
    "molecule": "CCOC(=O)c1c(C)cc(OC)cc1O",
    "normalized growth": 0.985
  },
  {
    "molecule": "CN1C[C@H](C(=O)N[C@]2(C)O[C@@]3(O)[C@@H]4CCCN4C(=O)[C@H](Cc4ccccc4)N3C2=O)C[C@@H]2c3cccc4[nH]cc(c34)C[C@H]21",
    "normalized growth": 0.959
  },
  {
    "molecule": "CCC(=O)c1c(O)cc(O)cc1O",
    "normalized growth": 1.01
  },
  {
    "molecule": "Nc1nc(Nc2ccccc2)nc2c1ncn2[C@@H]1O[C@H](CO)[C@H](O)C1O (stereo partly specified)",
    "normalized growth": 1
  },
  {
    "molecule": "CCc1cc(C(N)=S)ccn1",
    "normalized growth": 0.982
  },
  {
    "molecule": "C=C1SC(Nc2cccc(C(F)(F)F)c2)=NC12CCCCC2",
    "normalized growth": 0.982
  },
  {
    "molecule": "Cc1ccccc1OCC(O)CO (stereo unspecified)",
    "normalized growth": 1.03
  },
  {
    "molecule": "CCCn1c(=O)c2[nH]c(C3CCCC3)nc2n(CCCOC(=O)c2ccc(S(=O)(=O)F)cc2)c1=O",
    "normalized growth": 0.999
  },
  {
    "molecule": "COc1cc(OC)c2c(=O)c(OC)c(-c3ccc(OC)c(OC)c3)oc2c1",
    "normalized growth": 0.996
  }
]

* * *

test: chemical genetic growth profiling, strain panel (AID 1159580);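 also: tested at 20 µM; growth read once vehicle control cultures reached saturation at 30 °C; 1 = growth at the plate median or of vehicle wells; lower values mean less growth of the strain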; details: S. cerevisiae deletion strains, growth OD, locus YDR162C, strain NBP2
About 2,000 (36%) of roughly 5,500 compounds were called active. Not shown: some 18% with an inconclusive outcome. Rule as the data show it: active = normalized growth mostly below about 0.91 (no sharp cut-off); inconclusive = no clear call, values can overlap the other calls; inactive = mostly above about 0.92. The list shows a part of the results.
Outcome codes: Y for active, N for inactive

[
  {
    "compound": "CN1C[C@H](C(=O)N[C@]2(C)O[C@@]3(O)[C@@H]4CCCN4C(=O)[C@H](Cc4ccccc4)N3C2=O)C[C@@H]2c3cccc4[nH]cc(c34)C[C@H]21",
    "answer_label": "N"
  },
  {
    "compound": "O=c1c(O)c(-c2ccc(O)cc2O)oc2cc(O)cc(O)c12",
    "answer_label": "N"
  },
  {
    "compound": "NC(=O)NCC(N)C(=O)O (configuration not stated)",
    "answer_label": "N"
  },
  {
    "compound": "COc1ccc(-c2oc3cc(O[C@H]4O[C@H](CO)[C@@H](O)[C@H](O)[C@H]4O)c(OC)c(O)c3c(=O)c2OC)cc1O",
    "answer_label": "N"
  },
  {
    "compound": "C[C@@H]1O[C@@H](OC[C@H]2OC(Oc3c(-c4ccc(O)c(O)c4)oc4cc(O)cc(O)c4c3=O)[C@H](O)[C@@H](O)[C@@H]2O)[C@H](O)[C@H](O)[C@H]1O (some centres not stated)",
    "answer_label": "N"
  },
  {
    "compound": "O=C(OC1Cc2c(O)cc(O)cc2OC1c1cc(=O)c(O)c2c(O)c(O)cc(C3Oc4cc(O)cc(O)c4CC3O)c2c1)c1cc(O)c(O)c(O)c1 (configuration not stated)",
    "answer_label": "Y"
  },
  {
    "compound": "O=C(O[C@@H]1Cc2c(O)cc(O)cc2O[C@@H]1c1cc(O)c(=O)c2c(O)c(O)cc([C@H]3Oc4cc(O)cc(O)c4C[C@H]3O)c2c1)c1cc(O)c(O)c(O)c1",
    "answer_label": "Y"
  }
]

* * *

test: chemical genetic growth profiling, strain panel (AID 1159580);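 also: tested at 20 µM; growth read once vehicle control cultures reached saturation at 30 °C; 1 = growth at the plate median or of vehicle wells; lower values mean less growth of the strain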; conditions: S. cerevisiae deletion strains, growth OD, locus YMR001C, strain CDC5, active compounds read low
Out of some 5,500 compounds screened, about 2,000 (36%) were called active. Roughly 18% stayed inconclusive and do not appear here. The list shows a part of the results.

[
  {
    "compound": "CC(NC(=S)N/N=C\\c1ccccc1O)c1ccccc1 (configuration not stated)",
    "normalized growth": 0.979
  },
  {
    "compound": "CC(C)(C)NC(=S)N/N=C\\c1ccccc1O",
    "normalized growth": 0.95
  },
  {
    "compound": "c1ccc(-c2nnc(-c3ccccn3)nc2-c2ccccc2)cc1",
    "normalized growth": 0.903
  },
  {
    "compound": "OC(COc1ccc(F)cc1)(c1ccccc1)c1ccccc1",
    "normalized growth": 0.954
  },
  {
    "compound": "COc1ccccc1NC(=S)N/N=C\\c1ccccc1O",
    "normalized growth": 0.958
  },
  {
    "compound": "O=C1/C(=C/c2ccccn2)CCc2ccccc21",
    "normalized growth": 0.944
  },
  {
    "compound": "CN(C)C=Nc1nnc(Sc2nc3c(Cl)cc(Cl)cc3s2)s1",
    "normalized growth": 0.969
  },
  {
    "compound": "Cc1nnc2n1N=C(c1ccc(CC(C)C)cc1)C(C)S2 (configuration not stated)",
    "normalized growth": 0.974
  },
  {
    "compound": "COc1cc(Br)cc(C=Nc2ccc(Sc3ccccc3)nc2Sc2ccccc2)c1O",
    "normalized growth": 0.951
  },
  {
    "compound": "O=C(NNc1ccc(F)cc1F)c1sccc1Cl",
    "normalized growth": 0.974
  },
  {
    "compound": "OC1(C(F)(F)F)CC(c2ccc3ccccc3c2)=NN1 (configuration not stated)",
    "normalized growth": 0.151
  },
  {
    "compound": "O=S(=O)(CS(=O)(=O)Oc1ccc(Cl)c(Cl)c1)Oc1ccc(Cl)c(Cl)c1",
    "normalized growth": 0.94
  }
]

* * *

assay: chemical genetic growth profiling, strain panel (AID 1159580);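 also: tested at 20 µM; growth read once vehicle control cultures reached saturation at 30 °C; 1 = growth at the plate median or of vehicle wells; lower values mean less growth of the strain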; conditions: S. cerevisiae deletion strains, growth OD, locus YDR477W, strain SNF1, active compounds read low
Out of some 5,500 compounds screened, about 2,000 (36%) were called active. Roughly 18% stayed inconclusive and do not appear here. This is one part of the list.
Label 1.0 when normalized growth is strictly below 0.9; at or above that, label 0.0.

[
  {
    "molecule": "CCNC(=S)N/N=C\\c1cc(Cl)cc(Cl)c1O",
    "answer_label": 1.0
  },
  {
    "molecule": "Oc1c(Cl)cc(Cl)cc1/C=N\\NC(=S)Nc1cc(C(F)(F)F)cc(C(F)(F)F)c1",
    "answer_label": 1.0
  },
  {
    "molecule": "CC(C)(C)C(=O)NC(=S)N/N=C\\c1cc(Cl)cc(Cl)c1O",
    "answer_label": 1.0
  },
  {
    "molecule": "Oc1c(Br)cc(Br)cc1/C=N\\n1cnnc1",
    "answer_label": 1.0
  },
  {
    "molecule": "CCCCNC(=S)N/N=C\\c1cc(Cl)cc(Cl)c1O",
    "answer_label": 1.0
  },
  {
    "molecule": "CC(NC(=S)N/N=C\\c1ccccc1O)c1ccccc1 (configuration not stated)",
    "answer_label": 0.0
  },
  {
    "molecule": "COc1cc(Br)cc(C=Nc2ccc(Sc3ccccc3)nc2Sc2ccccc2)c1O",
    "answer_label": 1.0
  },
  {
    "molecule": "OC(COc1ccc(F)cc1)(c1ccccc1)c1ccccc1",
    "answer_label": 0.0
  },
  {
    "molecule": "O=C1Nc2ccccc2/C1=C\\c1c(Cl)cccc1Cl",
    "answer_label": 0.0
  },
  {
    "molecule": "COCCCNC(=S)N/N=C\\c1cc(Br)ccc1O",
    "answer_label": 0.0
  },
  {
    "molecule": "COc1ccccc1NC(=S)N/N=C\\c1ccccc1O",
    "answer_label": 0.0
  }
]
